- Target entity: human GlyT1b (Homo sapiens)
- Construct: expressed in transfected cells
- Sequence (P48067 1-652 isoform P48067-3): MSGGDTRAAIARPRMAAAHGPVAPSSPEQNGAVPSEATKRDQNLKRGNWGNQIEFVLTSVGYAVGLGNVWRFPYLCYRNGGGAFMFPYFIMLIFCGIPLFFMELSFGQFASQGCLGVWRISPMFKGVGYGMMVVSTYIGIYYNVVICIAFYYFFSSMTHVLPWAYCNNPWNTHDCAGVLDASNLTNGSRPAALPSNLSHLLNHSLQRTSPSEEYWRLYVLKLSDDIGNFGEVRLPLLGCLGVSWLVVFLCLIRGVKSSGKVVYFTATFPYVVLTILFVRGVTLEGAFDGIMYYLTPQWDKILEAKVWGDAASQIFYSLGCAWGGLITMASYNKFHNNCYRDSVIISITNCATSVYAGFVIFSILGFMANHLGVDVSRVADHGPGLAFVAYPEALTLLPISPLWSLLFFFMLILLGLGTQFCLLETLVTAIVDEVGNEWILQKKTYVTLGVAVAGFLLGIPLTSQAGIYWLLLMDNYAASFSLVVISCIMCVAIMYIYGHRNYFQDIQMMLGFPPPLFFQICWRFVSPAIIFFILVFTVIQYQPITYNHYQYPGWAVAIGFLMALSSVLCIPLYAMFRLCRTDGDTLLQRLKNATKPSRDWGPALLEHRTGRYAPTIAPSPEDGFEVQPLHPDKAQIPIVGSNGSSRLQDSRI
- Assay remarks: [3H] Glycine Uptake Assay (SPA) in recombinant hGlyT1b-CHO cells
- Assay type: cell-based
- Measurement parameters: Table 2, unit from table title
Measured log10(IC50) by item
Values are log10 of IC50 in nM.

Field: example entries. Status: answers known.
get_value(item= Cc1cc(C(NC(=O)c2c(C)cccc2C)C23CCC(CC2)N3C)ccn1 (single isomer, unassigned) , readout=log10(IC50)) returns 1.36

log10(IC50) in this record for `Cc1cccc(C)c1C(=O)N[C@H](c1ccccc1)C12CCC(CC1)N2CCN1CCOC1=O` : 0.48

Quick note, log10(IC50) for Cc1cc(C(NC(=O)c2c(C)cccc2C)C23CCC(CC2)N3)ccn1 (centres unmarked) landed at 2.13

So for Cc1ccc(C(NC(=O)c2c(C)cccc2C)C23CCC(CC2)N3C)o1 (single isomer, unassigned) [Example 87] , the logged log10(IC50) turned out to be 1.15

The value of log10(IC50) measured for the compound `CCCCN1C2CCC1([C@H](NC(=O)c1c(C)cccc1C)c1ccccc1)CC2` turned out to be 1.04

---
// recorded log10(IC50) for `COCCN1C2CCC1([C@H](NC(=O)c1ccc(F)cc1C)c1ccccc1)CC2` : 2.22

Field log10(IC50) (entry `CSc1ncccc1C(=O)N[C@H](c1ccccc1)C12CCC(CC1)N2C1CC1` ) reads 1.65

Input CSc1ncccc1C(=O)NC(c1ccccc1)C12CCC(CC1)N2C(C)C (centres unmarked) [Example 48] . Output log10(IC50): 1.36

====

- Target entity: human GlyT1b (Homo sapiens, UniProt P48067)
- Construct: expressed in transfected cells
- Assay remarks: [3H] Glycine Uptake Assay (SPA) in recombinant hGlyT1b-CHO cells
- Format: cell-based
- Measurement parameters: Table 2, unit from table title
IC50 listing for selected compounds.

Lookup result for Cc1ccc(F)cc1C(=O)NC(c1ccccc1)C12CCC(CC1)N2C (single isomer, unassigned) ; measured IC50: 125 nM

Looking up `Cc1cccc(C)c1C(=O)N[C@H](c1ccccc1)C12CCC(CC1)N2Cc1ccccc1` , I found its IC50 recorded as 174 nM

Others:
Entry `CCc1ccccc1C(=O)N[C@H](c1ccccc1)C12CCC(CC1)N2CCOC` ; IC50 = 68 nM

Query `COCCCN1C2CCC1([C@H](NC(=O)c1c(C)cccc1C)c1ccccc1)CC2` yields IC50 of 12 nM

====

Each entry below carries its reported log10 of IC50.
- Target entity: human GlyT1b (Homo sapiens)
- Construct: expressed in transfected cells
- Assay remarks: [3H] Glycine Uptake Assay (SPA) in recombinant hGlyT1b-CHO cells
- Assay type: cell-based
- Measurement parameters: Table 2, unit from table title
Quick note: numbers are log10 of IC50, with nM as the unit.

Record summary for Cc1cccc(C)c1C(=O)N[C@H](c1ccccc1)C12CCC(CC1)N2CCN [Example 40] : reported log10 of IC50 = 1.11

Attention now turns to another entry.
// Cc1cccc(C)c1C(=O)N[C@H](c1ccccc1)C12CCC(CC1)N2Cc1cnn(C)c1 [Example 61] : log10 of IC50 value = 1.08

====

- Target entity: human GlyT1b (Homo sapiens, UniProt P48067)
- Construct: expressed in transfected cells
- Sequence (P48067 1-652 isoform P48067-3): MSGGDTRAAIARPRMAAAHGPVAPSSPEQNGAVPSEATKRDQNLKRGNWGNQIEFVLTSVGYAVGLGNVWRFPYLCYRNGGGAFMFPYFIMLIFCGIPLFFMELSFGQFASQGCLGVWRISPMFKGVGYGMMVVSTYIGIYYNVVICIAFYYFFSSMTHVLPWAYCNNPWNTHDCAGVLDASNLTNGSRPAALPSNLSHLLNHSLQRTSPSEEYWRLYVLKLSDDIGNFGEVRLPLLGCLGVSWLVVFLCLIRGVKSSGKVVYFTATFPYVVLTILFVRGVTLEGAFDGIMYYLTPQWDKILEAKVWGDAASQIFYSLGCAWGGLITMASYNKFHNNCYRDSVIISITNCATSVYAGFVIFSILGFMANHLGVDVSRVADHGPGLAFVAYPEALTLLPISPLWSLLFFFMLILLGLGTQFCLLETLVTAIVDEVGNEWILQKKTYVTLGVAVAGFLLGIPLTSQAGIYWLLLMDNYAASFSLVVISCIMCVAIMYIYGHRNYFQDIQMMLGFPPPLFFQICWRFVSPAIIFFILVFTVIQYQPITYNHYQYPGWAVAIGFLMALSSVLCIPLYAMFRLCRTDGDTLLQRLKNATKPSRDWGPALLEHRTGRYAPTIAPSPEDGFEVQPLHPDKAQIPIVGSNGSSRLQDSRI
- Assay remarks: [3H] Glycine Uptake Assay (SPA) in recombinant hGlyT1b-CHO cells
- Format: cell-based
- Measurement parameters: Table 2, unit from table title
IC50 less than 100 nM is T; IC50 greater than or equal to 100 nM is F.

Examples from the recorded data:
Query: Strictly below 100 nM: is that where IC50 of CSc1ncccc1C(=O)NC(c1ccccc1)C12CCC(CC1)N2C(C)C (single isomer, unassigned) [Example 53] sits?
Reply: T

Query: Given the entry CCN1C2CCC1(C(NC(=O)c1cccnc1SC)c1ccccc1)CC2 (stereo not shown) [Example 51] , would its reported IC50 be below 100 nM?
Reply: F

Query: Confirm or reject: IC50 of CCCCc1cccc(C(NC(=O)c2c(C)cccc2C)C23CCC(CC2)N3C)c1 (stereo not shown) lies strictly below 100 nM
Reply: F

More entries:
Query: Hello, is IC50 of the following compound strictly smaller than 100 nM? Cc1ccc(C(NC(=O)c2c(C)cccc2C)C23CCC(CC2)N3C)cn1 (single isomer, unassigned) [Example 77]
Reply: T

Query: Below 100 nM on IC50? Entry Cc1ccccc1C(=O)NC(c1ccccc1)C12CCC(CC1)N2C (single isomer, unassigned)
Reply: T

Query: Take the compound COCCCN1C2CCC1(C(NC(=O)c1cccnc1SC)c1ccccc1)CC2 (stereo not shown) and say whether its IC50 is less than 100 nM.
Reply: F

====

- Target entity: human GlyT1b (Homo sapiens)
- Construct: expressed in transfected cells
- Assay remarks: [3H] Glycine Uptake Assay (SPA) in recombinant hGlyT1b-CHO cells
- Format: cell-based
- Measurement parameters: Table 2, unit from table title
IC50: recorded values

Entry Cc1cccc(C)c1C(=O)N[C@H](c1cncnc1)C12CCC(CC1)N2C [Example 72] ; IC50 = 148 nM

Lab book: IC50 of CCN1C2CCC1(C(NC(=O)c1c(Cl)cncc1Cl)c1ccccc1)CC2 (centres unmarked) [Example 50] noted as 237 nM

====

Below: a set of entries, each annotated with reported pIC50.
- Target entity: human GlyT1b (Homo sapiens, UniProt P48067)
- Construct: expressed in transfected cells
- Assay remarks: [3H] Glycine Uptake Assay (SPA) in recombinant hGlyT1b-CHO cells
- Assay type: cell-based
- Measurement parameters: Table 1
Conceptually, pIC50 converts a concentration in mol/L into minus its log10.

These solved cases illustrate the format of a correct answer.
For this compound ( Cc1cccc(F)c1C(=O)NC(c1ccccc1)C12CCC(CC1)N2C (single isomer, unassigned) [Example 7] ), measured pIC50 is 7.21

Recorded pIC50 (compound Cc1ccc(C(NC(=O)c2c(C)cccc2C)C23CCC(CC2)N3C)o1 (stereo not shown) [Example 9] ): 7.01

Noted for CN1C2CCC1(C(NC(=O)c1cccc(Cl)c1Cl)c1ccccc1)CC2 (single isomer, unassigned) [Example 13] : its pIC50 reads 7.14

// next item, pIC50 requested
Recorded result, CSc1ncccc1C(=O)NC(c1ccccc1)C12CCC(CC1)N2C (stereo not shown) [Example 10] , pIC50: 6.84
